Target: T1, 4H741-bH
T1 chain: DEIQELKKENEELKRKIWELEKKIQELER
Assay: two-hybrid library CCNG1;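 further: natural log of median RNA to DNA barcode read ratio; higher means stronger binding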
Assign TRUE to entries whose interaction score meets or exceeds -0.2; assign FALSE to the rest.

interaction score >= -0.2 for DKIQELKKENEELEREIWELEKENQELKR [4H2692-bH] ? FALSE

Given the entry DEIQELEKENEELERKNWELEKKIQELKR [4H182-bH] , answer whether its interaction score meets or surpasses -0.2. FALSE

New cases:
Dear colleague, could you confirm whether DEIQELEKKIEELKRENWELKKENQELKR [4H348-bH] has interaction score at or above -0.2? TRUE

Decide: is the reported value of interaction score for DKIQELEKEIEELKRENWELEKKIQELKR [4H2134-bH] equal to or greater than -0.2? TRUE

Record DKIQELKKKIEELKRKIWELEKENQELER [4H2915-bH] ; criterion: interaction score no lower than -0.2. Met? FALSE

Kindly determine if interaction score recorded for DKIQELKKEIEELERENWELKKENQELKR [4H2588-bH] is above or exactly -0.2. TRUE

Threshold query (interaction score >= -0.2) on DKIQELKKKNEELKRKNWELEKEIQELER [4H3057-bH] FALSE

Hi, just wondering whether DEIQELKKENEELKRKIWELEKKIQELER [4H741-bH] shows interaction score of -0.2 or higher. TRUE
